Listed here: items and their measured proportion of Fc homodimer on SDS-PAGE.
- assaySystem: the molecule itself
- assayName: co-transfection 1:1 in 293H, protein A pull-down, non-reducing SDS-PAGE densitometry; co-expressed with ScFv-Fc WT
measureName: proportion of Fc homodimer on SDS-PAGE

# protein, measuredResult
rows = [
    ("Fc protein K392D/K409D/D399K (other, Monomer chain; EU numbering is K392D/K409D/D399K; also called Fc-mix1; Fc of mutation combinations 1, 5 and 6) GSGGGDKTHTCPPCPAPELLGGPSVFLFPPKPKDTLMISRTPEVTCVVVDVSHENPEVKFNWYVDGVEVHNAKTKPREEQYNSTYRVVSVLTVLHQDWLNGKEYKCKVSNKALPAPIEKTISKAKGQPREPQVYTLPPSREEMTKNQVSLTCLVKGFYPSDIAVEWESNGQPENNYDTTPPVLKSDGSFFLYSDLTVDKSRWQQGNVFSCSVMHEALHNHYTQKSLSLSPGK", "51.3%"),
    ("Fc protein K392D/D399K (other, Monomer chain; also called Fc of mutation combination 7) GSGGGDKTHTCPPCPAPELLGGPSVFLFPPKPKDTLMISRTPEVTCVVVDVSHENPEVKFNWYVDGVEVHNAKTKPREEQYNSTYRVVSVLTVLHQDWLNGKEYKCKVSNKALPAPIEKTISKAKGQPREPQVYTLPPSREEMTKNQVSLTCLVKGFYPSDIAVEWESNGQPENNYDTTPPVLKSDGSFFLYSKLTVDKSRWQQGNVFSCSVMHEALHNHYTQKSLSLSPGK", "44.7%"),
    ("Fc protein D399K/K409D (other, Monomer chain; also called Fc of mutation combination 8) GSGGGDKTHTCPPCPAPELLGGPSVFLFPPKPKDTLMISRTPEVTCVVVDVSHENPEVKFNWYVDGVEVHNAKTKPREEQYNSTYRVVSVLTVLHQDWLNGKEYKCKVSNKALPAPIEKTISKAKGQPREPQVYTLPPSREEMTKNQVSLTCLVKGFYPSDIAVEWESNGQPENNYKTTPPVLKSDGSFFLYSDLTVDKSRWQQGNVFSCSVMHEALHNHYTQKSLSLSPGK", "43.4%"),
]
